Experiment: yeast display, Sf9 membrane polyspecificity reagent, FACS + sequencing; frameworks hold sequencing errors
metric: polyreactivity (PSR sort gate)

[[record]]
biopolymer_sequence = "QVQLVESGGGLVQAGGSLRLSCAASGSTFTANAMGWYRQAPGKERELVAAISDTTGNTYYADSVKGRFTISRDNAKNTVYLQMNSLKPEDTAVYYCAARQFKSDIVVSLVDSWGQGTHVTVSS"
result = "low polyreactivity"

[[record]]
biopolymer_sequence = "QVQLVESGGGLVQAGGSLRLSCAASGIIFGIYARGWYRQAPGKERELVAAIRYRGGNTNYADSVKGRFTISRDNAKNTVYLQMNSLKPEDTAVYYCAAKRFADPYYYWGQGTQVTVSS"
result = "high polyreactivity"

[[record]]
biopolymer_sequence = "QDQLVESGGGLVQWGRSLGIRCAASGRIFNVKAMGWYRQAPGNEREFDAAISGSVGSTYYADSVKGRFTISRDNAKYSVYLQHNSLKRLDTAVYYCAARYGYDRNRRPGYVYWGQGTQVTVSS"
result = "low polyreactivity"

[[record]]
biopolymer_sequence = "QVQHVESGGGLVQAGGSLRLSCAASGFTFWRYAMGWYRQEPGKERELVAGISSGGSTNYADSVKGRFTISRDNAKNTVYLQMNSLKPEDTAVYYCAADNSVGSYDYWGQGSQVTVSS"
result = "low polyreactivity"

[[record]]
biopolymer_sequence = "QVQLVESGGGLVQAGGSLRLSCAASGSIFPDNAMRWYRQAPGKERELVAAITRGGSTYYADSVKGRFTISRDNAKNTVYLQMNSLKPEDTAVYYCAARRRYLWSYDYWGQGTQVTVSS"
result = "high polyreactivity"

[[record]]
biopolymer_sequence = "QVQLVESGGGLVQAGGSLRLSCAASGRTFYSYAMGWYRQAPGKERELVAAITWRASTYYADSVKGRFTISRDNAKNTVYLQMNSLKPEDTAVYYCAVRDYRPRYYTFLYNSPYDYWGQGTQVTVSS"
result = "high polyreactivity"

[[record]]
biopolymer_sequence = "QVQLVESGGGLVQAGGSLRLSCAASGRTFYFNAMGWYRQAPGKERELVAAITFSGGSTNYADSVKGRFTISRDNAKNTVYLQMNSLKPEDTAVYYCAAPKYLGTDEYDYWGQGTQVTVSS"
result = "low polyreactivity"

[[record]]
biopolymer_sequence = "QVQLVESGGGLVQAGGSLRLSCAASGFTFDYYAMGWYRQAPGKERELVAAISKSGGSTYYADSVKGRFTISRDNAKNTVYLQLISLKPEDTAVYYCAAYTYVRSKNKGGDYWGQGTQVTVSS"
result = "high polyreactivity"

[[record]]
biopolymer_sequence = "QVQLVESGGGLVQAGGSLRLSCAASGRTFDHNAMGWYRQAPGKERELVAAITSRGGSTYYADSVKGRFTISRDNAKNTVYLQMNSLKPEDTAVYYCNRYKSSSYIRGDYWGQGTQVTVSS"
result = "high polyreactivity"

[[record]]
biopolymer_sequence = "QVQLVESGGGLVQAGGSLRLSCAASGRIFHIYAMGWYRQAPGKERELVAAISSDGSTYYADSVKGRFTISRDNAKNTVYLQMNSLKPEDTAVYYCAVESPQGRQCYEYWGQGTQVTVSS"
result = "low polyreactivity"

[[record]]
biopolymer_sequence = "QDQLVESGGGLVQAGGSLRLSCAASGSIFGVNDMGWYRQGAGKERELVAGINQGGGSTYYADSVKGRFTISRDNAKNSVYLQMNSLKPEETAVYYCAAVRYVLRSPARYGYWGQGTQVTVSS"
result = "low polyreactivity"

[[record]]
biopolymer_sequence = "QVQLEESGGGLVQAGVSLRLSCAASGSTFSLYAMGWYRPAPGKERELVAAISSGGRTNYADSVKGRFTISRDNAKKTVYLQMNSLKPEDTAVYYCAARIQWPTWSLYYYWGQGTQVTVSS"
result = "high polyreactivity"

[[record]]
biopolymer_sequence = "QVQLVESGGGLVQAGGSLRVSCAASGRIVWPNTMGWSRQAPGKERELVAAISWSGGSTYYADSVKGRFTISRDNAKNTVYLHRNSLKPEHTAVYSCAKRPPHYSWPKIIDFGSWGQGTQVTVSS"
result = "high polyreactivity"

[[record]]
biopolymer_sequence = "QVQLVESRRGLVQARGSLRLSCAASGITFRWYAMGWYRQAPGKERELVAAITTGGSTKYADSVKGRFTISRDNAKNTVYLQMNSLKPEDTAVYYCAARGRYAGGYWGQGTQVTVSS"
result = "high polyreactivity"

